protocol: Phase 1 study: plasma pharmacokinetics, Cycle 1 Day 15, after oral Compound A
Type: in vivo, human
stated_conditions: human, po, 150 mg, Compound A Cmax (mean), patients, oral Compound A 150 mg QD, Cycle 1 Day 15 steady state
endpoint_label: Cmax (ng/mL)
The reply should be a number in ng/mL, with the unit left off.

For record CCn1c(=O)c(-c2cc(NC(=O)Nc3ccccc3)c(F)cc2Br)cc2cnc(NC)cc21 [Compound A] the listed Cmax is 861

###

tgt: recombinant wild type PDGFRβ (Homo sapiens, UniProt P09619)
Sequence (P09619 with tags, fused parts or gaps N1019K): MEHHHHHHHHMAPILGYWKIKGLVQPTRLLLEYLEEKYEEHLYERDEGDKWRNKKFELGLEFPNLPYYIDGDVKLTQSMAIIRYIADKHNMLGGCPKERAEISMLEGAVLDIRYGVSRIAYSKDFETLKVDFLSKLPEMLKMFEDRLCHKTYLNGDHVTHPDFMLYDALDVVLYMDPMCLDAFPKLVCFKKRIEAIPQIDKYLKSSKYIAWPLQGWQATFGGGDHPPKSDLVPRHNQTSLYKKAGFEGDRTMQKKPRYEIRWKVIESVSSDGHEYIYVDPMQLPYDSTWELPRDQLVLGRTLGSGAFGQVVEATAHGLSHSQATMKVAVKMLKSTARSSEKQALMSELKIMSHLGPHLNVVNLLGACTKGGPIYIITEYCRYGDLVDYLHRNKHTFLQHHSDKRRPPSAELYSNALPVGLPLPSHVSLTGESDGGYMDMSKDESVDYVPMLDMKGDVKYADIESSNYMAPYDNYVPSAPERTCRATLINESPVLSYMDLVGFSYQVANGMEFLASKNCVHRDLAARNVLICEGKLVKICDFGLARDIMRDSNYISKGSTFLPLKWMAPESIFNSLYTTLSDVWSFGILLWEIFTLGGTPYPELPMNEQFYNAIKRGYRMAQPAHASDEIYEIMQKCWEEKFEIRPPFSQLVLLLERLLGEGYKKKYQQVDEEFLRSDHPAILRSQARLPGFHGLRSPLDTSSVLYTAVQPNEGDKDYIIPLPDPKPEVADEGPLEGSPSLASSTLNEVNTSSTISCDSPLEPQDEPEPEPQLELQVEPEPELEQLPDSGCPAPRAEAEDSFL
protocol: Biochemical assay for PDGFRB (coupled pyruvate kinase/lactate dehydrogenase)
stated_conditions: 0.5 mM ATP, 9 nM PDGFRB; read-out: IC50, inhibition of recombinant wild type PDGFRβ enzyme activity
endpoint_label: IC50 (nM)
The reply should be a number in nM, with the unit left off.

For record CCn1c(=O)c(-c2cc(NC(=O)Nc3ccccc3)c(F)cc2Br)cc2cnc(N)cc21 the listed IC50 is 5
